This collection of values is drawn from patent US20220089592A1.

biological target: IRAK4 (Homo sapiens); experiment: 2-hour 1 mM ATP IRAK4 Biochemical assay (as above, but with 100 pM IRAK4 and 1 mM ATP); conditions: IRAK4 MSD BIOCHEMICAL (1 mM ATP) IC50 (μM), 100 pM IRAK4, 2 hours
Sequence (Q9NWZ3 whole entry): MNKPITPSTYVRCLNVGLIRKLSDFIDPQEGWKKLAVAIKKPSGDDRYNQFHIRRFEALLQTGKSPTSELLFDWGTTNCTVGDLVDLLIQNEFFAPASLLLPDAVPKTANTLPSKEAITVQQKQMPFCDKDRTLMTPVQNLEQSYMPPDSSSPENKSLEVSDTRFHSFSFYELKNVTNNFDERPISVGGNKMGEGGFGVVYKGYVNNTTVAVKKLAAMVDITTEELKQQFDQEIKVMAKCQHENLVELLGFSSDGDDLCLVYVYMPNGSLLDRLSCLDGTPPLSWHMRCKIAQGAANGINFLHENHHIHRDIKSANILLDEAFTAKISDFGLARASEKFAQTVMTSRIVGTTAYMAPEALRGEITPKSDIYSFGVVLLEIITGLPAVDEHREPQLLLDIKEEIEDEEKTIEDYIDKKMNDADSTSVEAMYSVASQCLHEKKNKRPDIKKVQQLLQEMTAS
Readout: IC50 (µM)

Example cases with answers are listed next.
CC(C)Oc1c(NC(=O)c2cccc3ncnn23)cn2cc(C34COC(C)(C3)C4)nc2c1F :: 0.004
CCOc1cc2nc(CC3CCOC3)cn2cc1NC(=O)c1ccn(CC(F)F)n1 (stereo not drawn) :: 0.01
CCOc1cc(NC(=O)c2cccc(C(F)(F)F)n2)cn2cc([C@H]3[C@@H]4COC[C@@H]43)nc12 :: 0.023
CC(C)Oc1cc2nc(Cl)cn2cc1NC(=O)c1cccc(C(F)F)n1 :: 0.002
CCOc1cc2nc(C3C4COCC43)cn2cc1NC(=O)c1csc(C(F)(F)F)n1 (stereo not drawn) [Example 377, 2,2,2-trifluoroacetate] :: 0.001
COc1nc(NC(=O)c2cccc(C(C)C)n2)cn2cc(C3CCOCC3)nc12 :: 0.014
CC(C)Oc1cc2nc(-c3cccc(F)c3)cn2cc1NC(=O)c1cccc(C(F)F)n1 [Example 538, 2,2,2-trifluoroacetate] :: 0.003
CCOc1cc2nc(C3(C#N)CCOCC3)cn2cc1NC(=O)c1cccc(C(F)F)n1 :: 0.002

[A] CC(C)Oc1nc2nc(C3C4COCC43)cn2cc1NC(=O)c1ccn(CC(F)F)n1 (stereo not drawn)
[B] CCOc1cc2nc(C3CN(C4COC4)C3)cn2cc1NC(=O)c1cccc(C(F)F)n1
Hey, which is lower on measured IC50, A or B ? Record your answer as the label of the chosen record.
B
(B: 0.001 µM, A: 0.002 µM)

[I] CCOc1cc2nc(C3CN(CC(F)(F)F)C3)cn2cc1NC(=O)c1cccc(C(F)F)n1
[II] CCOc1cc2nc([C@H]3C[C@@H]3F)cn2cc1NC(=O)c1cccc(C(F)F)n1 (stereo in doubt)
[III] CCC(C)Oc1c(NC(=O)c2cccnc2OC)cn2cc(C34COC(C)(C3)C4)nc2c1F (stereo not drawn) [Example 326]
[IV] COc1nc(NC(=O)c2coc(C(F)F)n2)cn2cc(C34COC(C)(C3)C4)nc12
[V] CC12CC(c3cn4cc(NC(=O)c5coc(C(F)F)n5)nc(OC5CCC5)c4n3)(CO1)C2 [Example 485, 2,2,2-trifluoroacetate]
Arrange the 5 compounds from largest to smallest IC50. In your reply, arrange the labels in the requested order.
IV, V, III, II, I
(IV: 0.063 µM, V: 0.037 µM, III: 0.012 µM, II: 0.005 µM, I: 0.001 µM)

* * *

target: UniProtKB Q9NWZ3; assay: 2-hour 1 mM ATP IRAK4 Biochemical assay (as above, but with 100 pM IRAK4 and 1 mM ATP); conditions: IRAK4 MSD BIOCHEMICAL (1 mM ATP) IC50 (μM), 100 pM IRAK4, 2 hours
Readout: IC50 (µM)

CCOc1cc2nc(C3CCNC3)cn2cc1NC(=O)c1cccc(C(F)(F)F)n1 (centres unmarked) :: 0.001
CCOc1cc2nc(C(F)C3CCOC3)cn2cc1NC(=O)c1cccc(C(F)(F)F)n1 (mixture of isomers) [Example 142] :: 0.001
CC12CC(c3cn4cc(NC(=O)c5cccc(C(F)F)n5)ccc4n3)(CO1)C2 :: 0.03
CCOc1cc2nc(C3CC3)cn2cc1NC(=O)c1cccc2c1OCC2 :: 0.021
CCOc1cc2nc(C3CCOCC3)cn2cc1NC(=O)c1ccn(C)n1 :: 0.021

[1] CC(C)Oc1nc(NC(=O)c2ccnc3ccnn23)cn2cc(C34COC(C)(C3)C4)nc12
[2] CCOc1cc2nc([C@@H](O)C3CC3)cn2cc1NC(=O)c1cccc(C(F)(F)F)n1 (single isomer, unassigned)
[3] CC(C)Oc1nc2nc(C34COC(C)(C3)C4)cn2cc1NC(=O)c1ccn(C(F)F)n1
Form: Sort by [IC50] Order [ ascending ] In your reply, arrange the labels in the requested order.
3, 2, 1
(3: 0.001 µM, 2: 0.009 µM, 1: 0.025 µM)
